test.description: growth effects on S. cerevisiae YJM789 – YJM789 clinical isolate, OD600, 24 h, basal, primary screen (AID 1089);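 note: growth of clinical yeast isolate S. cerevisiae YJM 789 seeded 1000 cells per well; test concentration not given here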
condition.details: higher = more signal, called active from +8 up or from −8 down
observable: z-score

>  <molecule>
O=C(NCC(O)CO)C1N=C(c2ccc(OCCCO)cc2)N(c2ccccc2)O1 (stereo not drawn)

>  <observable>
z-score

>  <recorded.measurement>
-0.375

$$$$
>  <molecule>
Cc1ccc(S[C@]2(C(=O)NC3CC3)CC(=O)N(C(C)C)[C@@H]2c2ccc(CO)cc2I)cc1

>  <observable>
z-score

>  <recorded.measurement>
-0.812

$$$$
>  <molecule>
C=CC1c2cc(O)c(OC)cc2CCN1C (stereo not drawn)

>  <observable>
z-score

>  <recorded.measurement>
-0.763

$$$$
>  <molecule>
COc1ccc(C(=O)Nc2ccc(CN3C(=O)[C@@]4(O[C@@H](CCn5cc(CCO)nn5)[C@H]([Si](C)(C)c5ccc(OC)cc5)[C@H]4C)c4ccccc43)cc2)cc1

>  <observable>
z-score

>  <recorded.measurement>
0.704

$$$$
>  <molecule>
COc1ccc([Si](C)(C)[C@H]2[C@H](CC(=O)N3Cc4ccccc4C[C@H]3CO)O[C@@]3(C(=O)N(C)c4ccccc43)[C@@H]2C)cc1

>  <observable>
z-score

>  <recorded.measurement>
-1.52

$$$$
>  <molecule>
O=C(NC1CC1)[C@@H]1c2ccccc2C(=O)N(CC23CC4CC(CC(C4)C2)C3)[C@H]1c1ccc(CO)cc1

>  <observable>
z-score

>  <recorded.measurement>
-0.706

$$$$
>  <molecule>
C=CC[C@@]1(C(=O)N(C)C)N=C(c2ccc(OCCCO)cc2)O[C@@H]1c1ccccc1CN=[N+]=[N-]

>  <observable>
z-score

>  <recorded.measurement>
-0.127

$$$$
>  <molecule>
COc1cc(CO)cc(I)c1O[C@H]1C=C(C(=O)NCCO)C[C@@H]2O[C@H]12

>  <observable>
z-score

>  <recorded.measurement>
0.111

$$$$

###

test.description: probe aWnt5a binding to arrayed compounds – biochemical, biotinylated probe, 635/667 nm fluorescence, primary screen (AID 1113);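 note: score merges 667 nm fluorescence intensity with signal-to-noise per printed feature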
condition.details: small-molecule microarray, higher = more signal

>  <molecule>
CN(C)CCCNC(=O)[C@@]1(Cc2ccccc2I)c2ccccc2C(=O)N(C2CCCCC2)[C@H]1c1ccc(CO)cc1

>  <composite z-score>
-0.0057

$$$$
>  <molecule>
O=C1C[C@@](C(=O)NC2CC2)(c2ccc([N+](=O)[O-])cc2)[C@@H](c2ccc(CO)cc2)N1C1CCCCC1

>  <composite z-score>
-0.1

$$$$
>  <molecule>
CC1CC/C=C\[C@H]2OC34C=CCN(c5ccc(Cl)cc5)C(=O)[C@H]3N(CCCCCCO)C(=O)[C@]4(C)C2C(=O)O1 (some centres undefined)

>  <composite z-score>
-0.262

$$$$
>  <molecule>
C=CC[C@@]1(C(=O)N(C)C)N=C(c2ccc(OCCCO)cc2)O[C@@H]1c1ccccc1CN=[N+]=[N-]

>  <composite z-score>
0.0293

$$$$

###

test.description: resazurin metabolic signal in A549 cells – cell-based, resazurin fluorescence, 24 h, PK04 Diversity Set, profiling panel (AID 1171); note: test concentration not given here
condition.details: A549 viability, higher = more signal, called active from +8 up or from −8 down
Active and inactive are the calls of the source.
Each record here notes measured z-score.

>  <compound>
CCC(CC)C(O)C1C=CC2C(=O)N(c3ccccc3)C(=O)C2N1Nc1ccccc1F (stereo not drawn)

>  <z-score>
0.0513 (inactive)

$$$$
>  <compound>
C[N+](C)(C)CCCC[C@@H]1NC(=O)[C@@H]2C[C@H](C(=O)NCc3ccc(F)cc3)[C@H](c3ccc(O)cc3)N2C1=O

>  <z-score>
-0.0894 (inactive)

$$$$
>  <compound>
COCCOC(=O)N1C(=O)[C@@]2(c3cc(C#Cc4ccc(OC)cc4)ccc31)[C@H](c1ccc(OCCO)cc1)N1[C@H](c3ccccc3)[C@H](c3ccccc3)OC(=O)[C@H]1[C@@H]2C(=O)NC[C@H](O)c1ccccc1

>  <z-score>
-0.377 (inactive)

$$$$

###

Test system: Lefty1
test.description: Lefty1 protein binding to printed compounds – biochemical, small-molecule microarray, 635/667 nm fluorescence, primary screen (AID 1139)
condition.details: fluorescence 635/667, higher = more signal
The label depends only on composite z-score: t if it is at least 1, f if it is smaller.

>  <compound>
COc1ccc([Si](C)(C)[C@H]2[C@H](CC(=O)N3CCC[C@H]3CO)O[C@@]3(C(=O)N(Cc4ccc(N5CCCCC5=O)cc4)c4ccccc43)[C@@H]2C)cc1

>  <assigned.class>
t

$$$$
>  <compound>
C=C(C)[C@@H]1CC=C(C(O)C2C=CC3C(=O)N(c4ccccc4)C(=O)C3N2Nc2ccc([N+](=O)[O-])cc2)CC1 (stereo partly drawn)

>  <assigned.class>
t

$$$$
>  <compound>
CN(C)CCCNC(=O)[C@@H]1c2ccccc2C(=O)N(Cc2ccccc2C(F)(F)F)[C@H]1c1ccc(CO)cc1

>  <assigned.class>
f

$$$$
>  <compound>
C=C(CCCC)/C(=C/C[C@@H](OC(C)=O)c1ccc(CO)o1)c1cnc2ccccc2c1

>  <assigned.class>
t

$$$$
>  <compound>
C=CC1c2cc(O)c(OC)cc2CCN1C (stereo not drawn)

>  <assigned.class>
f

$$$$
>  <compound>
Cc1ccc(S[C@]2(C(=O)NC(C)C)CC(=O)N(C3CCCCC3)[C@@H]2c2ccc(CO)cc2I)cc1

>  <assigned.class>
f

$$$$
>  <compound>
CCN(CC)c1ccc(N2CC=CC34O[C@@H]5C=CCCOC(=O)C5[C@H]3C(=O)N(C(C)CO)[C@@H]4C2=O)cc1 (stereo partly drawn)

>  <assigned.class>
f

$$$$
>  <compound>
O=C1N(CCS(=O)(=O)c2ccccc2)c2ccccc2C[C@]12N=C(c1ccc(OCCCO)cc1)O[C@@H]2c1ccccc1

>  <assigned.class>
f

$$$$

###

test.description: hepatitis C replication reporter changes, two-sided – Huh7 cells, luciferase reporter, HCV replication inhibitor project, primary screen (AID 1109);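 note: huh7 hepatoma cells harbouring a luciferase neomycin HCV replicon reporter; luciferase luminescence as measure of HCV replicon replication; test concentration not given here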
condition.details: Huh7 HCV replicon luciferase reporter, 48 h; higher = more signal
Each record here notes measured z-score.
observable: z-score

>  <molecule>
COC(=O)[C@H](Cc1ccccc1)N1CC2=CCCC=C[C@@H]2[C@H]1[C@H](O)Cc1ccccc1

>  <recorded.measurement>
-1.74

$$$$
>  <molecule>
CCOC(=O)C[C@H]1[C@H](OC(=O)c2ccccc2-c2ccccc2)[C@@H](NC(=O)c2ccc3ccccc3c2)c2cc(OCCCO)ccc2N1C(=O)Cc1ccc(OC)cc1

>  <recorded.measurement>
-1.6

$$$$
>  <molecule>
CCCCC(O)C1C=CC2C(=O)N(c3ccccc3)C(=O)C2N1Nc1ccc(C#N)cc1 (configuration not stated)

>  <recorded.measurement>
-0.115

$$$$
>  <molecule>
COCCOC(=O)N1C(=O)[C@@]2(c3cc(C#CCCO)ccc31)[C@H](C(N)=O)[C@H]1C(=O)O[C@H](c3ccccc3)[C@H](c3ccccc3)N1[C@@H]2c1ccccc1OCCO

>  <recorded.measurement>
-2.12

$$$$
>  <molecule>
CCCNC(=O)[C@@]1(c2ccc([N+](=O)[O-])cc2)CC(=O)N(C(C)C)[C@@H]1c1ccc(CO)cc1

>  <recorded.measurement>
0.0828

$$$$
>  <molecule>
CC(C)NC(=O)[C@@]1(C)c2ccccc2C(=O)N(Cc2ccccc2)[C@H]1c1ccc(CO)cc1

>  <recorded.measurement>
-0.957

$$$$
>  <molecule>
C=CCN1C(=O)[C@]2(O[C@H](CCn3cc([C@H](O)c4ccccc4)nn3)[C@@H]([Si](C)(C)c3ccc(OC)cc3)[C@@H]2C)c2cc(NC(=O)c3ccc(OC)cc3)ccc21

>  <recorded.measurement>
-4.74

$$$$

###

test.description: JC-1 mitochondrial signal, unstimulated adipocytes – cell-based, JC-1 fluorescence, 3T3-L1 adipocytes, 24 h, 100 nL compound, profiling panel (AID 1168); note: test concentration not given here
condition.details: JC-1 mitochondrial fluorescence, higher = more signal, called active from +8 up or from −8 down
Calls of active or inactive are those of the source.
Each record here notes measured z-score.
observable: z-score

>  <compound>
O=C1O[C@@H](c2ccccc2)[C@@H](c2ccccc2)N2[C@@H](c3ccccc3OCCO)[C@]3(C(=O)Nc4ccc(C#CCCO)cc43)[C@@H](C(=O)NC[C@H](O)c3ccccc3)[C@H]12

>  <recorded.measurement>
0.00583 (inactive)

$$$$
>  <compound>
NC(=O)N1C(=O)C2C(C1=O)C1C=C(CCCO)C2C(c2ccc(CN3CCCC3)cc2)N1Cc1cc2c(cc1Br)OCO2 (configuration not stated)

>  <recorded.measurement>
-0.472 (inactive)

$$$$
>  <compound>
CN(C)CCCNC(=O)[C@@H]1c2ccccc2C(=O)N(Cc2ccccc2C(F)(F)F)[C@H]1c1ccc(CO)cc1

>  <recorded.measurement>
-0.343 (inactive)

$$$$
>  <compound>
O=C1N(CCS(=O)(=O)c2ccccc2)c2ccccc2C[C@]12N=C(c1ccc(OCCCO)cc1)O[C@@H]2c1ccccc1

>  <recorded.measurement>
1.07 (inactive)

$$$$
>  <compound>
CC(C)N1C(=O)c2ccccc2[C@](C)(C(=O)NCC(F)(F)F)[C@@H]1c1ccc(CO)cc1

>  <recorded.measurement>
-0.0819 (inactive)

$$$$
>  <compound>
CC1CC/C=C\[C@H]2OC34C=CCN(C(C)(C)C)C(=O)[C@H]3N(CCCO)C(=O)[C@@H]4C2C(=O)O1 (some centres not stated)

>  <recorded.measurement>
-0.274 (inactive)

$$$$
>  <compound>
COc1ccc(NN2C(C(O)c3ccc(I)cc3)C=CC3C(=O)N(C4CCCCC4)C(=O)C32)cc1 (configuration not stated)

>  <recorded.measurement>
0.0889 (inactive)

$$$$

The reported numbers originate from PubChem BioAssay.
